Hello, the source for this data is patent US11834453B2, in case you need it.

experimental-target: ErbB2 insYVMA (HER2-YVMA, SEQ ID NO: 2) (Homo sapiens, UniProt P04626, INS775YVMA/P1170A)
Sequence (P04626 with tags, fused parts or gaps INS775YVMA/P1170A limits assumed): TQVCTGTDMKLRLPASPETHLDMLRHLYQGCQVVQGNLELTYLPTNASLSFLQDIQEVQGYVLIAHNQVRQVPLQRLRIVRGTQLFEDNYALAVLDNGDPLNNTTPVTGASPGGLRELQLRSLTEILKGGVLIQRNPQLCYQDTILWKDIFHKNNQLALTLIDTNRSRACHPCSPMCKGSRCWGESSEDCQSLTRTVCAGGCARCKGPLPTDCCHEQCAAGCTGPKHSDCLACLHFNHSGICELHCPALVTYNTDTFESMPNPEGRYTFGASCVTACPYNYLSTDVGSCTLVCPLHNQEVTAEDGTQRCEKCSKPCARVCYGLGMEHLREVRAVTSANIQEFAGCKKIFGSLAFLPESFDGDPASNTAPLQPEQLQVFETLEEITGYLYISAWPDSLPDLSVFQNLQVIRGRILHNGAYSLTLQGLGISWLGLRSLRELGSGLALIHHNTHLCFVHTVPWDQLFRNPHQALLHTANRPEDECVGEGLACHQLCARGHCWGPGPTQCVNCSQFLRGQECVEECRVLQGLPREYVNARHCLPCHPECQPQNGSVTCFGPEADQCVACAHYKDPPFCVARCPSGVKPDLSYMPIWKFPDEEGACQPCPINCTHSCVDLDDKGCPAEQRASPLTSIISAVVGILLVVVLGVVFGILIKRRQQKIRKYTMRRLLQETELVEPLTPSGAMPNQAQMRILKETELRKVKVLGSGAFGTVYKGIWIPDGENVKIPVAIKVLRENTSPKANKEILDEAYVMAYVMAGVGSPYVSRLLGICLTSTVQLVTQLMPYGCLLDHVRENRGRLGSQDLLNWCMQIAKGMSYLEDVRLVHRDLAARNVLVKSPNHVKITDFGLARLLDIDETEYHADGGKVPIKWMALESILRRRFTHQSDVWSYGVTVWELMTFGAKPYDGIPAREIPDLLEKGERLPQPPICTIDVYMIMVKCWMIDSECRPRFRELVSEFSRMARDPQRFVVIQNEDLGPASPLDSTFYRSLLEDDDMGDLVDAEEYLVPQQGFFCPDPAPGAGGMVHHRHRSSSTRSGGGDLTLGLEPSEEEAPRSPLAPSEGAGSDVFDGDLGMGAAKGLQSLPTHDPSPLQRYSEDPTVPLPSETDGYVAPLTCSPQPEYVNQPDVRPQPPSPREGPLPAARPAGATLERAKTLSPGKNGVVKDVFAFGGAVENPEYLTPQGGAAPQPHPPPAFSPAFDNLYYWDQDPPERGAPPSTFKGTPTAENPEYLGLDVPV
protocol: biochemical
condition-info: ErbB2 insYVMA enzyme assay; read-out: Assay 1 IC50
Hi there, I'd appreciate the recorded pIC50 for every entry that follows.
On this scale, pIC50 is minus log10 of a concentration expressed in M (mol/L).

Data point: Cc1cc(Nc2ncnc3cnc(O[C@@H]4CN(C)C[C@@H]4F)nc23)ccc1Oc1ccc2c(c1)ncn2C [Example 87] ; pIC50 = 7.16

Summary for this compound, Cc1cc(Nc2ncnc3cnc(NCC4(O)COC4)nc23)ccc1Oc1ccc2c(c1)ncn2C [Example 319] : pIC50 is 7.78

The value of pIC50 measured for the compound Cc1cc(Nc2ncnc3cnc(N4CCOCC4)nc23)ccc1Oc1ccc2csnc2c1 [Example 243] turned out to be 7.39

Item: Cc1cc(Nc2ncnc3cnc(N4CCC4C(F)(F)F)nc23)ccc1Oc1ccc2c(c1)ncn2C (stereo not shown) [Example 238] | pIC50: 7.00

* * *

experimental-target: ErbB2 insYVMA (HER2-YVMA, SEQ ID NO: 2) (Homo sapiens, UniProt P04626, INS775YVMA/P1170A)
protocol: biochemical
condition-info: ErbB2 insYVMA enzyme assay; read-out: Assay 1 IC50
Field: pIC50. Provide a value for each of the compounds that follow.
Scale: negative log10 of molar concentration, which is what pIC50 denotes.

Kindly note the recorded pIC50 for `Cc1cc(Nc2ncnc3cnc(NC4COC4)nc23)ccc1Oc1ccc2c(c1)ncn2C` , which is 7.53

# compound `Cc1c(Oc2ccc3c(c2)ncn3C)ccc(Nc2ncnc3cnc(N(C)CC(C)(C)O)nc23)c1F` ; its pIC50 = 7.56

// recorded pIC50 for `Cc1c(Oc2ccn3ncnc3c2)ccc(Nc2ncnc3cnc(N4CC[C@H](O)C4)nc23)c1F` : 7.12

Please fill in: pIC50 reported for `Cc1cc(Nc2ncnc3cnc(NC4=NC(C)(C)CO4)nc23)ccc1Oc1ccn2ncnc2c1` = 7.58

GET /value?item= `Cn1cnc2cc(Oc3ccc(Nc4ncnc5cnc(N6C[C@@H]7CC[C@H]6CO7)nc45)cc3Cl)ccc21` &field=pIC50 returns 7.68

response.value for Cc1cc(Nc2ncnc3cnc(N4CC5C(C4)C5(F)F)nc23)ccc1Oc1ccc2c(c1)ncn2C (centres unmarked) (field: pIC50) = 6.98

Consider `Cc1cc(Nc2ncnc3cnc(N4C[C@H]5CC[C@@H]4CO5)nc23)ccc1Oc1ccn2ncnc2c1` . Its measured pIC50 is 7.39

Recorded result, `Cc1cc(Nc2ncnc3cnc(N(C)CC(C)(C)O)nc23)c(F)cc1Oc1ccc2c(c1)ncn2C` , pIC50: 7.56

* * *

measure: IC50 (µM)
# value in µM; strip the unit string

Form field, IC50 with UniProt P00533, item `Cc1cc(Nc2ncnc3cnc(N(C)CC4(O)CC4)nc23)ccc1Oc1ccn2ncnc2c1` : 5.15

Field IC50 (system: UniProt P00533) for entry `[2H]c1nc(Nc2ccc(Oc3ccc4c(c3)ncn4C)c(C)c2)c2nc(N3CCOCC3)nc([2H])c2n1` = 8.23

Form: item `Cc1cc(Nc2ncnc3cnc(N(C)[C@H]4CCOC4)nc23)ccc1Oc1ccc2c(c1)ncn2C` ; test system UniProt P00533; IC50: 3.27

The reported UniProt P00533 IC50 of `Cc1cc(Nc2ncnc3cnc(N(C)[C@H]4C[C@@](C)(O)C4)nc23)ccc1Oc1ccc2c(c1)ncn2C` is 0.216
